Exercise: state measured TGI for each of the compounds provided.
# Tested on: UACC-257 melanoma
# experimental-protocol: NCI tumour cell line growth inhibition, 48 h

Prompt line: I am curious: what TGI value has been reported for NC1=NN(c2ccccc2)C(=O)C1C(=O)CCC(=O)Nc1cccc(C(F)(F)F)c1 (centres undefined) ?
Response line: > 100 µM

Prompt line: Okay, and `O=C1C2=Cc3ccccc3CCN2c2ccccc21` ?
Response line: > 79.9 µM

Prompt line: Okay, and `Cc1cn2c(/C=C3/C(=O)N(C)c4ccccc43)c(C)nc2s1` ?
Response line: > 100 µM

Prompt line: Okay, and Cc1ccccc1N(CCC#N)C1=NN(C(=O)CC(=O)Nc2ccccc2)C(c2ccccc2)C1 (centres undefined) ?
Response line: > 100 µM

Prompt line: Okay, and CC(C)CCCC(C)[C@H]1CC[C@H]2n3c(nnc3-c3ccccc3)CCC[C@]12C (some centres undefined) ?
Response line: 26.9 µM

Prompt line: Okay, and `NCCCC[C@@H]1NC(=O)[C@H]2CCCN2C(=O)[C@H](Cc2ccccc2)NC(=O)[C@H](Cc2ccccc2)CNC1=O` ?
Response line: > 100 µM

Prompt line: Okay, and Cc1cc(S(=O)(=O)Nc2nc(N)nc(N3N=CCC3C)n2)c(SCC(=O)O)cc1Cl (centres undefined) ?
Response line: > 10 µM

Prompt line: Okay, and `COc1cc2oc(-c3ccc(O)cc3)cc(=O)c2c(OC)c1OC` ?
Response line: > 100 µM

Prompt line: Okay, and `CN(C)CCn1c(=O)c2ccc(NCCNCCO)c3c(=O)c4ccccc4n(c1=O)c23` ?
Response line: 3.14 µM

Prompt line: Okay, and CC12Nc3c(Cl)cc(Cl)cc3N1C(=O)c1ccccc12 (centres undefined) ?
Response line: > 100 µM

Prompt line: Okay, and CN1CCCC2C(c3ccccc3)C(C3=NCCCC3)C(c3ccccc3)CC21 (centres undefined) ?
Response line: 35 µM

Prompt line: Okay, and `CSC1=N/C(=C\c2ccc(C)cc2)C(=O)N1` ?
Response line: > 100 µM

Prompt line: Okay, and `N=C1C(=N)c2ccccc2-c2ccccc21.[Cl-].[Ru+2].c1cnc2c(c1)ccc1cccnc12.c1cnc2c(c1)ccc1cccnc12` ?
Response line: 46.6 µM

Prompt line: Okay, and CN(CCC(=O)N1CC(CCl)c2ccc([N+](=O)[O-])cc21)CCC(=O)N1CC(CCl)c2ccc([N+](=O)[O-])cc21 (centres undefined) ?
Response line: 21.6 µM
